# targetDesc: Protein farnesyltransferase (Homo sapiens, UniProt P49354+P49356)
# assayOverview: In vitro inhibition of farnesyltransferase
What IC50 was measured for each of the following?
Numbers only here, please. The scale is nM.

Supply measured IC50 of N#CC1=C(c2cccc3ccccc23)CN(C(=O)Cc2cncn2Cc2ccc(Cl)cc2)CC1 in your reply.
35

Provide only the value of recorded IC50 for N#CC1=C(c2cccc3ccccc23)CN(C(=O)CCc2cncn2Cc2ccc(C#N)cc2)CC1
1.4

Consider the compound CN(Cc1ccc(C#N)cc1)[C@H](Cc1cncn1C)C(=O)N1CCC(C#N)=C(c2cccc3ccccc23)C1 and give its recorded IC50.
0.92

In one line, give reported IC50 of the entry N#CC1=C(c2cccc3ccccc23)CN(C(=O)Cc2cncn2Cc2ccc(C#N)c(Cl)c2)CC1 .
15

State its IC50 for this compound: Cn1cncc1CN(Cc1ccc(Cl)c(Cl)c1)C(=O)N1CCC(C#N)=C(c2cccc3ccccc23)C1
20

Assign IC50 to the following record: Cn1cncc1CN(Cc1cccc(C#N)c1)C(=O)N1CCC(C#N)=C(c2cccc3ccccc23)C1
59

Please indicate IC50 recorded for Cn1cncc1CN(Cc1ccc(C#N)cc1)C(=O)N1CCC(C#N)=C(c2cccc3ccccc23)C1
3.5

Answer with reported IC50 of Cn1cncc1C(c1ccc(C#N)cc1)N1CCC(C#N)=C(c2cccc3ccccc23)C1 (configuration not stated)
0.5

Name the recorded IC50 of the item COC1=C(C#N)CCN(C(=O)Cc2cncn2Cc2ccc(C#N)c(-c3cccc4ccccc34)c2)C1 in your answer.
1.4

Look up IC50 of Cn1cncc1C(NN1CCC(C#N)=C(c2cccc3ccccc23)C1)c1ccc(C#N)cc1 (configuration not stated) and report it.
0.5

In one line, give reported IC50 of the entry Cn1cncc1CN(Cc1ccc(C#N)c(Br)c1)C(=O)N1CCC(C#N)=C(c2cccc3ccccc23)C1 .
3.1

Specify IC50 for Cn1cncc1C(O)(CN1CCC(C#N)=C(c2cccc3ccccc23)C1)c1ccc(C#N)cc1 (configuration not stated) and stop.
0.48

* * *

# targetDesc: Protein farnesyltransferase (Mus musculus, UniProt Q61239+Q8K2I1)
# assayOverview: Inhibition of Ras farnesylation in Human Ha-Ras oncogene-transformed BALB/c 3T3 cells (EJ3 cells)
What EC50 was measured for each of the following?
Provide the reading as a plain figure in nM.

Give the observed EC50 of Cn1cncc1C(O)(CN1CCC(C#N)=C(c2cccc3ccccc23)C1)c1ccc(C#N)cc1 (stereo unspecified) for Protein farnesyltransferase (Mus musculus, UniProt Q61239+Q8K2I1).
4

Report EC50 under test system Protein farnesyltransferase (Mus musculus, UniProt Q61239+Q8K2I1) for Cn1cncc1CN(Cc1ccc(C#N)cc1)C(=O)N1CCC(C#N)=C(c2cccc3ccccc23)C1 .
97

Give EC50 for N#CC1=C(c2cccc3ccccc23)CN(C(=O)CCc2cncn2Cc2ccc(C#N)cc2)CC1 tested on Protein farnesyltransferase (Mus musculus, UniProt Q61239+Q8K2I1).
28

Recall the reported EC50 of Cn1cncc1C(NN1CCC(C#N)=C(c2cccc3ccccc23)C1)c1ccc(C#N)cc1 (stereo unspecified) on Protein farnesyltransferase (Mus musculus, UniProt Q61239+Q8K2I1) and write it down.
0.5

Give the observed EC50 of Cn1cncc1C(c1ccc(C#N)cc1)N1CCC(C#N)=C(c2cccc3ccccc23)C1 (stereo unspecified) for Protein farnesyltransferase (Mus musculus, UniProt Q61239+Q8K2I1).
31

Provide EC50, recorded with Protein farnesyltransferase (Mus musculus, UniProt Q61239+Q8K2I1), of N#CC1=C(c2cccc3ccccc23)CN(C(=O)Cc2cncn2Cc2ccc(C#N)cc2)CC1
3.9

Attribution: ChEMBL document CHEMBL1136694
